- Target system: AHK3 (Arabidopsis thaliana, UniProt Q9C5U1)
- Construct: expressed in transfected cells; host or cells: Escherichia coli strain KMI001, plasmid pSTV28-AHK3
- Sequence (Q9C5U1 whole entry): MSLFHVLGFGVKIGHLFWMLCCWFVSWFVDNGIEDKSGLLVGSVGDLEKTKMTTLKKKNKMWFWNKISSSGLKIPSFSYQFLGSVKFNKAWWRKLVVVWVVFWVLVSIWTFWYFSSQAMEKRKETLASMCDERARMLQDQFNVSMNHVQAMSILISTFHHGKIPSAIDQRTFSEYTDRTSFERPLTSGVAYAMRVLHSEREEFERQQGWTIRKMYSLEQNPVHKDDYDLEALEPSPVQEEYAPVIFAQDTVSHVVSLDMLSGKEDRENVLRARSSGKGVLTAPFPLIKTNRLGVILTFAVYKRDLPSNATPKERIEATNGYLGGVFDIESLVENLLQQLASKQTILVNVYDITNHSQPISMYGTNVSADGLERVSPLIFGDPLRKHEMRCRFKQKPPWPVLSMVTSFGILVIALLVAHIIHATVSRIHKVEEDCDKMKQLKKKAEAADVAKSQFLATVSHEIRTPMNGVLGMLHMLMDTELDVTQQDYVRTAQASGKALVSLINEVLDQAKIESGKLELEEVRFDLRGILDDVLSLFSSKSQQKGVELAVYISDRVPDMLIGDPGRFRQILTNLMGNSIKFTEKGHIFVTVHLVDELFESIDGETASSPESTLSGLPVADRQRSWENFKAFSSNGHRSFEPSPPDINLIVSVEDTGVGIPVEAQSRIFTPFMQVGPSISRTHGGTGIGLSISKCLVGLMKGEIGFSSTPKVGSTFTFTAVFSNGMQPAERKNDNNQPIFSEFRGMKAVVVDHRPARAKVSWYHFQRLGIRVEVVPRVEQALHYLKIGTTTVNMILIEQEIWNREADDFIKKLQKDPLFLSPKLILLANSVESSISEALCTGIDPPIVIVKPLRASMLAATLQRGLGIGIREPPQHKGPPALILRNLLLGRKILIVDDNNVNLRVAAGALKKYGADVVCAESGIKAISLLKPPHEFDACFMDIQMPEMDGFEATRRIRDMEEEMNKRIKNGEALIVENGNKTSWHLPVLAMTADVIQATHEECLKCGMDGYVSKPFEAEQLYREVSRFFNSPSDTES
- Assay remarks: Cytokinin receptor activation assay in E. coli (AHK3)
- Assay type: cell-based
Measure name: pEC50
As a rule, pEC50 stands for the negative log10 of the concentration, concentration in M.

O=C(NCCCl)Nc1cnns1 [Compound 14] :: 4.82

Input line: Recorded pEC50 for O=C(Nc1ccccc1)Nc1cnns1 [TDZ, 1-phenyl-3-(1,2,3-thiadiazol-5-yl)urea, reference compound] with AHK3 (Arabidopsis thaliana, UniProt Q9C5U1), please?
Output line: 6.98

Input line: # repeat for C/C(=C\CNc1ncnc2[nH]cnc12)CO [tZ, trans-zeatin, reference compound]
Output line: 7.18

====

Parameter: EC50. Scope: all listed entries.
- System: ARR5:GUS reporter gene
- Assay remarks: Arabidopsis ARR5:GUS reporter gene assay
- Assay type: in vivo, Arabidopsis thaliana
- Condition set: Arabidopsis thaliana; transgenic Arabidopsis plants; read-out: ARR5:GUS activation EC50
Lab book: enter the figure in nM, no units written.

Here are 2 compounds together with their reported answers.
c1ccc(CNc2ncnc3nc[nH]c23)cc1 [BA, N^6-benzyladenine, reference compound] :: 76
CC(C)=CCNC(=O)Nc1cnns1 [TD-iP] :: 65

# context switch: different compound, same EC50
Input line: I would be grateful if you could share the reported EC50 for C/C(=C\CNC(=O)Nc1cnns1)CO [TD-tZ] .
Output line: 520

Reference source: paper PMC6142817
